# assayed system: Ras farnesyl transferase (Rattus norvegicus, UniProt Q02293+Q04631)
# Construct: endogenous in cells; host or cells: Rat2 fibroblasts transformed with C-Harvey-Ras, or with H-Ras carrying the K-Ras C-terminal polybasic lysine domain
# test details: in vivo (cellular) Ras farnesyl transferase inhibitory activity, Rat2 cells transformed with H-Ras fused with polybasic lysine domain of K-Ras
# Assay type: cell-based
# test settings: Rat2 cell line transformed with H-Ras substituted with polybasic lysine domain at C-terminus of K-Ras; concentration inhibiting 50% of farnesyl binding; read-out: K-Ras CIC50
# Protocol: In the present experiment, Rat2 cell line which expresses C-Harvey-Ras protein having transforming activity and Rat2 cell line(Korean patent application No. 97-14409) which is transformed with fused protein of H-Ras substituted with polybasic lysine domain at C-terminus of K-Ras were used. The experiment was performed by the modified Declue's method(Declue. J. E. et al., Cancer Research, 1991, 51, 712). Hereinafter, the experimental method will be described in more detail. […]
measured quantity: IC50

## Input Which IC50 reading was recorded for the compound CN1CCN(C(=O)c2cn(Cc3cncn3CC3CCN(C(=O)OCc4ccc(F)cc4)CC3)cc2-c2cccc3ccccc23)CC1 [Compound 47] ?
## Output 4 µM

## Input Which IC50 reading was recorded for the compound CN1CCN(C(=O)c2cn(Cc3cncn3CC3CCN(S(C)(=O)=O)CC3)cc2-c2cccc3ccccc23)CC1 [Compound 41] ?
## Output 10 to 50 µM

## Input Which IC50 reading was recorded for the compound O=C(c1cn(Cc2cncn2CC2CCNCC2)cc1-c1cccc2ccccc12)N1CCOCC1 [Compound 2] ?
## Output 10 to 100 µM

## Input Which IC50 reading was recorded for the compound COCCN(C)C(=O)c1cn(Cc2cncn2CC2CCN(C(=O)Cc3ccc(OC)cc3)CC2)cc1-c1cccc2ccccc12 [Compound 13] ?
## Output 1 to 50 µM

## Input Which IC50 reading was recorded for the compound CN(C)CCN(C)C(=O)c1cn(Cc2cncn2CC2CCN(C(=O)OCc3ccccc3)CC2)cc1-c1cccc2ccccc12 [Compound 39] ?
## Output 30 to 100 µM

## Input Which IC50 reading was recorded for the compound COCCN(C)C(=O)c1cn(Cc2cncn2CC2CCN(C(=O)OCCC(C)C)CC2)cc1-c1cccc2ccccc12 [Compound 23] ?
## Output 1 to 10 µM

## Input Which IC50 reading was recorded for the compound CC(=O)N1CCC(Cn2cncc2Cn2cc(C(=O)N3CCN(C)CC3)c(-c3cccc4ccccc34)c2)CC1 [Compound 42] ?
## Output 10 to 50 µM

---

# assayed system: Ras farnesyl transferase (Rattus norvegicus, UniProt Q02293+Q04631)
# Construct: endogenous in cells; host or cells: Rat2 fibroblasts transformed with C-Harvey-Ras, or with H-Ras carrying the K-Ras C-terminal polybasic lysine domain
# test details: in vivo (cellular) Ras farnesyl transferase inhibitory activity, Rat2 cells transformed with H-Ras fused with polybasic lysine domain of K-Ras
# Format: cell-based
# test settings: Rat2 cell line transformed with H-Ras substituted with polybasic lysine domain at C-terminus of K-Ras; concentration inhibiting 50% of farnesyl binding; read-out: K-Ras CIC50
measured quantity: IC50

## Input Which IC50 reading was recorded for the compound CN1CCN(C(=O)c2cn(Cc3cncn3CC3CCN(Cc4ccc(-c5ccccc5)cc4)CC3)cc2-c2cccc3ccccc23)CC1 [Compound 56] ?
## Output 5 µM

## Input Which IC50 reading was recorded for the compound CCCCNC(=O)N1CCC(Cn2cncc2Cn2cc(C(=O)N(C)CCOC)c(-c3cccc4ccccc34)c2)CC1 [Compound 10] ?
## Output 1 to 50 µM

## Input Which IC50 reading was recorded for the compound CCCCCCC(=O)N1CCC(Cn2cncc2Cn2cc(C(=O)N(C)CCOC)c(-c3cccc4ccccc34)c2)CC1 [Compound 12] ?
## Output 1 to 50 µM

## Input Which IC50 reading was recorded for the compound CC(=O)N1CCC(Cn2cncc2Cn2cc(C(=O)N3CCOCC3)c(-c3cccc4ccccc34)c2)CC1 [Compound 3] ?
## Output 10 to 50 µM

## Input Which IC50 reading was recorded for the compound CN1CCN(C(=O)c2cn(Cc3cncn3CC3CCN(C(=O)OCc4ccccc4)CC3)cc2-c2cccc3ccccc23)CC1 [Compound 38] ?
## Output 2.5 µM

## Input Which IC50 reading was recorded for the compound CN1CCN(C(=O)c2cn(Cc3cncn3CC3CCN(C(=O)/C=C/c4ccccc4)CC3)cc2-c2cccc3ccccc23)CC1 [Compound 50] ?
## Output 10 to 50 µM

## Input Which IC50 reading was recorded for the compound CS(=O)(=O)N1CCC(Cn2cncc2Cn2cc(C(=O)N3CCOCC3)c(-c3cccc4ccccc34)c2)CC1 [Compound 4] ?
## Output 10 to 50 µM

These entries and their values trace back to patent US6436960B1.
